tested-system: TF-VIIa (Homo sapiens)
Construct: 2nM recombinant human factor VIIa; purchased American Diagnostica, Greenwich CT; host or cells: soluble TF made in house in E. coli
Sequence (P08709 213-466 limits assumed): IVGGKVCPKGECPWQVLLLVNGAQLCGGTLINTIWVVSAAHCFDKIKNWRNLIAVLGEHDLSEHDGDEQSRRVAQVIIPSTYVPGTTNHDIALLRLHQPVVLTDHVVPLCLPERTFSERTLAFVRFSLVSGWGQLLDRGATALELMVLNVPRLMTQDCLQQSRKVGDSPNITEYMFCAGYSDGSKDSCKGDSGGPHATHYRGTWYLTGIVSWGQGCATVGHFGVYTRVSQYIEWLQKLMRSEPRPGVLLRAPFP
Sequence (P08709 61-212 limits assumed): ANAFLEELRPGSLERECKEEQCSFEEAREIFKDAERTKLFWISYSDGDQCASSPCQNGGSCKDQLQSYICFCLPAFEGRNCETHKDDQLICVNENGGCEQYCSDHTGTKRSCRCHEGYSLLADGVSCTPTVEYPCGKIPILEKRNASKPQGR
Sequence (P13726 33-251 partner limits assumed): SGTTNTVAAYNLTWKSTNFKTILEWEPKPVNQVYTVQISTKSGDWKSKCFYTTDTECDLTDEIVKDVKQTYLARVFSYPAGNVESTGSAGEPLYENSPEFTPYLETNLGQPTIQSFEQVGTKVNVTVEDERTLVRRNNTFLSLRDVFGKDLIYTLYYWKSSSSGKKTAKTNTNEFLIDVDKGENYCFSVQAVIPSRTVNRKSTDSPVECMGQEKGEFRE
procedure-text: TF-VIIa Assay
Type: biochemical
conditions: cells given as a plain number (IC50); read-out: IC50 or % Inhibition TF-VIIa (30 µM)
quantity-name: IC50 (nM)

1. CC(C)Nc1nc(Cl)c(-c2ccc(Cl)nc2)n(CC(=O)NCc2ccc(C(=N)N)cc2F)c1=O [compound 74] = 3250
2. CNc1cccc(-c2c(Cl)nc(NC(C)C)c(=O)n2CC(=O)NCc2ccc(C(=N)N)cc2)c1 [compound 96] = 260
3. CCCC(CCC)Nc1nc(Cl)c(-c2ccccc2)n(CC(=O)NCc2ccc(C(=N)N)cc2)c1=O [1517-26] = 1800
4. N=C(N)c1ccc(CNC(=O)Cn2c(-c3cccc(N)c3)c(Cl)nc(NC3CCC3)c2=O)cc1 [compound 90] = 20
5. CC(C)Nc1nc(Cl)c(-c2cccc(C#N)c2)n(CC(=O)NCc2ccc(C(=N)N)cc2)c1=O [Example 17] = 710

1: N=C(N)c1ccc(CNC(=O)Cn2c(-c3cccc4ccccc34)c(Cl)nc(NCCc3ccccc3)c2=O)cc1 [compound 80]
2: N=C(N)NCCC[C@H](NC(=O)Cn1c(-c2ccccc2)cnc(NCCc2ccccc2)c1=O)C(=O)c1nccs1 [Example 6]
Query block: // returns 1 or 2 , whichever has the lower IC50 Answer by stating the label of the chosen item.
Result block: 2
(2: 100 nM, 1: 1290 nM)

* * *

Below are IC50 or % Inhibition Factor Xa (30 µM) values recorded for Human factor Xa (Homo sapiens, UniProt P00742).
quantity-name: IC50 or % Inhibition Factor Xa (30 µM) (%)

Field: example entries. Status: answers known.
1) N=C(N)c1ccc(CNC(=O)Cn2c(-c3ccccc3)c(Cl)nc(NCCCc3ccccc3)c2=O)cc1 = 4
2) N=C(N)c1ccc(CNC(=O)Cn2c(-c3ccccc3)c(Cl)nc(NCC(F)(F)F)c2=O)cc1 = 17
3) N=C(N)c1ccc(CNC(=O)Cn2c(-c3ccccc3)c(Cl)nc(NC3CCC3)c2=O)cc1 = 23
4) CC(C)Nc1nc(Cl)c(-c2cccc(N)c2)n(CC(=O)NCc2ccc(C(=N)N)cc2F)c1=O = 10

I: N=C(N)c1ccc(CNC(=O)Cn2c(-c3ccccc3)c(Cl)nc(NCC(c3ccccc3)c3ccccc3)c2=O)cc1
II: COc1ccc(-c2c(Cl)nc(NCCc3ccc(Cl)cc3)c(=O)n2CC(=O)NCc2ccc(C(=N)N)cc2)cc1
Query block: Return label of the item with the larger IC50 or % Inhibition Factor Xa (30 µM). Candidates: I , II . Answer by stating the label of the chosen item.
Result block: II

* * *

Below are % Inhibition Factor Xa (100 µM) values recorded for Human factor Xa (Homo sapiens).
quantity-name: % Inhibition Factor Xa (100 µM) (%)

Field: example entries. Status: answers known.
1) O=C(Cn1c(CCc2ccccc2)c(Cl)nc(NCCc2cccnc2)c1=O)NCCc1ccncc1 = 0
2) O=C(Cn1c(CCc2ccccc2)c(Cl)nc(NCCc2ccncc2)c1=O)NCCc1ccncc1 = 0
3) O=C(Cn1c(-c2ccc3c(c2)OCO3)c(Cl)nc(NCc2ccccc2)c1=O)NCCc1ccncc1 = 0
4) O=C(Cn1c(-c2ccccc2)c(Cl)nc(NCCc2ccccc2)c1=O)NCCc1ccncc1 = 0
5) COc1ccc(-c2c(Cl)nc(NCCc3ccncc3)c(=O)n2CC(=O)NCCc2ccncc2)cc1 = 0

a: COc1ccc(-c2c(Cl)nc(NCc3ccccc3)c(=O)n2CC(=O)NCCc2cccnc2)cc1
b: COc1ccc(-c2c(Cl)nc(NCCc3ccc(Cl)cc3)c(=O)n2CC(=O)NCCc2cccnc2)cc1
Query block: // returns a or b , whichever has the lower % Inhibition Factor Xa (100 µM) Answer by stating the label of the chosen item.
Result block: a
(a: 2%, b: 6%)

Taken from patent EP1202975B1.
